Var.EC50/HuIgG1 EC50 reference
Target: T1, human CD11a (human, UniProt P20701 26-1170)
T1 construct: whole, on cells; On Jurkat T-cells or human peripheral blood mononuclear cells, as part of LFA-1; also called CD11a on Jurkat cells; alpha subunit of LFA-1
T1 sequence (P20701 26-1170): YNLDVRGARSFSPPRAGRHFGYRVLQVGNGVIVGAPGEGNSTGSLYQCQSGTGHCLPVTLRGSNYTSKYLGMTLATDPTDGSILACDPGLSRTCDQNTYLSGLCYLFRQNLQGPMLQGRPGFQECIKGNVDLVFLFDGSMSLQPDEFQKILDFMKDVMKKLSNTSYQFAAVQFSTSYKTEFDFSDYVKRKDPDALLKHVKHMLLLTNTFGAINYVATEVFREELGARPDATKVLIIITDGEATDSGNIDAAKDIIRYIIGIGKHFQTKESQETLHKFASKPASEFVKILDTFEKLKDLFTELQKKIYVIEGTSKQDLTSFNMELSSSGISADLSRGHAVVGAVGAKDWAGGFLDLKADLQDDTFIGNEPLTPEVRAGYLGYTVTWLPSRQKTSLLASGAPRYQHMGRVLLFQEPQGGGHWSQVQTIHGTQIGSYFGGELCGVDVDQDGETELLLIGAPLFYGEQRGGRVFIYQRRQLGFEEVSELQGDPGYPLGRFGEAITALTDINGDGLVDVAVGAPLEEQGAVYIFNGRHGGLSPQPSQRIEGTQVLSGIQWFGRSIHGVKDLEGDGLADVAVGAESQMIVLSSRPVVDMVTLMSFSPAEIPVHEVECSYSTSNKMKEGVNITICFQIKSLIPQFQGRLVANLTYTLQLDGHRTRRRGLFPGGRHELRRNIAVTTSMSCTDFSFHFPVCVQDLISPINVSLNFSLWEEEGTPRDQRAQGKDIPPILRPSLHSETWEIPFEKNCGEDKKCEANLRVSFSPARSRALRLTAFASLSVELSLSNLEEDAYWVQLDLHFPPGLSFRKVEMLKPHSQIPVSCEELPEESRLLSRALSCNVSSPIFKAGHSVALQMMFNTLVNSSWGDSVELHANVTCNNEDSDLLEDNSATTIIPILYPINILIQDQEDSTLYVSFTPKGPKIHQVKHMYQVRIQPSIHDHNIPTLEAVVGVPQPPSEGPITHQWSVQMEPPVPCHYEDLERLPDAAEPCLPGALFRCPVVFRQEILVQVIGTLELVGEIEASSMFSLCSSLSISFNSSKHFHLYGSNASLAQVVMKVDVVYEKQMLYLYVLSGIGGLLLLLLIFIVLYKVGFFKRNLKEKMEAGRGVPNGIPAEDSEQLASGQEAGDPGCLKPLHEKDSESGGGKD
Assay: FACScan, Jurkat cells
Kindly answer with a numeric value in ratio, unit omitted.

Check out these entries, answers already filled in.
Query :: Quick one: Var.EC50/HuIgG1 EC50 of HuIgG1 mutant LysH62Ala (antibody, V domains shown, HuIgG1 mutant, human IgG1; Kabat numbering) VH: EVQLVESGGGLVQPGGSLRLSCAASGYSFTGHWMNWVRQAPGKGLEWVGMIHPSDSETRYNQAFKDRFTISVDKSKNTLYLQMNSLRAEDTAVYYCARGIYFYGTTYFDYWGQGTLVTVSS VL: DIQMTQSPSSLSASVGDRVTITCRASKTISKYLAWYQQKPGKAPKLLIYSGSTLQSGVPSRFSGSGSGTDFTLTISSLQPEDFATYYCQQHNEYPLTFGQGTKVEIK ?
Result :: 1.8

Query :: Next entry: HuIgG1 mutant H2A1 (antibody, V domains shown, HuIgG1 mutant, human IgG1; Kabat numbering) VH: EVQLVESGGGLVQPGGSLRLSCAASGYSFTGHWMNWVRQAPGKGLEWVGMIAPADSETRYNQKFKDRFTISVDKSKNTLYLQMNSLRAEDTAVYYCARGIYFYGTTYFDYWGQGTLVTVSS VL: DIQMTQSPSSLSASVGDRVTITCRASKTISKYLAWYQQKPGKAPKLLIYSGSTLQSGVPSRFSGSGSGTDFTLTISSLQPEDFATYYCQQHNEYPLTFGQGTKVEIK
Result :: 10.8

Query :: Also need HuIgG1 mutant HisH32Ala (antibody, V domains shown, HuIgG1 mutant, human IgG1; Kabat numbering) VH: EVQLVESGGGLVQPGGSLRLSCAASGYSFTGAWMNWVRQAPGKGLEWVGMIHPSDSETRYNQKFKDRFTISVDKSKNTLYLQMNSLRAEDTAVYYCARGIYFYGTTYFDYWGQGTLVTVSS VL: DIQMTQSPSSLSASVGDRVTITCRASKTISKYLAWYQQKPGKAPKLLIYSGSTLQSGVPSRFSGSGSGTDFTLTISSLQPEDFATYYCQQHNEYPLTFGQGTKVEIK , thanks.
Result :: 2.3

Query :: Continue with HuIgG1 mutant ThrL53Ala (antibody, V domains shown, HuIgG1 mutant, human IgG1; Kabat numbering) VH: EVQLVESGGGLVQPGGSLRLSCAASGYSFTGHWMNWVRQAPGKGLEWVGMIHPSDSETRYNQKFKDRFTISVDKSKNTLYLQMNSLRAEDTAVYYCARGIYFYGTTYFDYWGQGTLVTVSS VL: DIQMTQSPSSLSASVGDRVTITCRASKTISKYLAWYQQKPGKAPKLLIYSGSALQSGVPSRFSGSGSGTDFTLTISSLQPEDFATYYCQQHNEYPLTFGQGTKVEIKR
Result :: 0.9

Query :: What would you report for HuIgG1 mutant SerL52Ala (antibody, V domains shown, HuIgG1 mutant, human IgG1; Kabat numbering) VH: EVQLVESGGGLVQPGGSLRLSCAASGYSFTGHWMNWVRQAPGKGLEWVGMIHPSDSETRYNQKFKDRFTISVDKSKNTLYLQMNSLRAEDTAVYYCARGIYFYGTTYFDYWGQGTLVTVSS VL: DIQMTQSPSSLSASVGDRVTITCRASKTISKYLAWYQQKPGKAPKLLIYSGATLQSGVPSRFSGSGSGTDFTLTISSLQPEDFATYYCQQHNEYPLTFGQGTKVEIKR ?
Result :: 1.1

Query :: Again, but for HuIgG1 mutant GlnH61Ala (antibody, V domains shown, HuIgG1 mutant, human IgG1; Kabat numbering) VH: EVQLVESGGGLVQPGGSLRLSCAASGYSFTGHWMNWVRQAPGKGLEWVGMIHPSDSETRYNAKFKDRFTISVDKSKNTLYLQMNSLRAEDTAVYYCARGIYFYGTTYFDYWGQGTLVTVSS VL: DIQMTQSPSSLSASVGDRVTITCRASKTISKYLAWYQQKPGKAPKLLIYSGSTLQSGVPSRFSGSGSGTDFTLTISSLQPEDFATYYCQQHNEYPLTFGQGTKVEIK
Result :: 4.1

Query :: And HuIgG1 mutant HisH52Ala (antibody, V domains shown, HuIgG1 mutant, human IgG1; Kabat numbering) VH: EVQLVESGGGLVQPGGSLRLSCAASGYSFTGHWMNWVRQAPGKGLEWVGMIAPSDSETRYNQKFKDRFTISVDKSKNTLYLQMNSLRAEDTAVYYCARGIYFYGTTYFDYWGQGTLVTVSS VL: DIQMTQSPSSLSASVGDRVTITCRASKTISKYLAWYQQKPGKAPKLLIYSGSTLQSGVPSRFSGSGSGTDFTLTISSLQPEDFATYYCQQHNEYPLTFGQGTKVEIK ?
Result :: 1.5

Query :: Queued: HuIgG1 mutant GluL93Ala (antibody, V domains shown, HuIgG1 mutant, human IgG1; Kabat numbering) VH: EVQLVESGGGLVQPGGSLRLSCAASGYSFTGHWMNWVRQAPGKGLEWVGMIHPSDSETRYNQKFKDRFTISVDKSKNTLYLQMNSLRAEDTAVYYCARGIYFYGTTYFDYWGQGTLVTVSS VL: DIQMTQSPSSLSASVGDRVTITCRASKTISKYLAWYQQKPGKAPKLLIYSGSTLQSGVPSRFSGSGSGTDFTLTISSLQPEDFATYYCQQHNAYPLTFGQGTKVEIKR
Result :: 1.7

Query :: // repeat for HuIgG1 mutant TyrH100cAla (antibody, V domains shown, HuIgG1 mutant, human IgG1; Kabat numbering) VH: EVQLVESGGGLVQPGGSLRLSCAASGYSFTGHWMNWVRQAPGKGLEWVGMIHPSDSETRYNQKFKDRFTISVDKSKNTLYLQMNSLRAEDTAVYYCARGIYFYGTTAFDYWGQGTLVTVSS VL: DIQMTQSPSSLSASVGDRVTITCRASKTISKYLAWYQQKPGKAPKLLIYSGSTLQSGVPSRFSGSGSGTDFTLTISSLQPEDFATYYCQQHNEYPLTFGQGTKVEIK and report
Result :: 7.6

Now for the binder whose Var.EC50/HuIgG1 EC50 we want.
Query :: Name the reported Var.EC50/HuIgG1 EC50 value associated with the binder HuIgG1 mutant SerH53Ala (antibody, V domains shown, HuIgG1 mutant, human IgG1; Kabat numbering) VH: EVQLVESGGGLVQPGGSLRLSCAASGYSFTGHWMNWVRQAPGKGLEWVGMIHPADSETRYNQKFKDRFTISVDKSKNTLYLQMNSLRAEDTAVYYCARGIYFYGTTYFDYWGQGTLVTVSS VL: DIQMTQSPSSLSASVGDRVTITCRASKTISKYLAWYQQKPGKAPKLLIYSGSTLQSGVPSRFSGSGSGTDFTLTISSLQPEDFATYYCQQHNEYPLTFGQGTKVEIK
Result :: 1.8
